# measured target: recombinant full-length human prolyl endopeptidase (PREP) (Homo sapiens)
# Construct: To recombinant full-length human prolyl endopeptidase (PREP, R&D-Systems, 4308-SE); purchased R&D-Systems 4308-SE
# Sequence (P48147 1-710): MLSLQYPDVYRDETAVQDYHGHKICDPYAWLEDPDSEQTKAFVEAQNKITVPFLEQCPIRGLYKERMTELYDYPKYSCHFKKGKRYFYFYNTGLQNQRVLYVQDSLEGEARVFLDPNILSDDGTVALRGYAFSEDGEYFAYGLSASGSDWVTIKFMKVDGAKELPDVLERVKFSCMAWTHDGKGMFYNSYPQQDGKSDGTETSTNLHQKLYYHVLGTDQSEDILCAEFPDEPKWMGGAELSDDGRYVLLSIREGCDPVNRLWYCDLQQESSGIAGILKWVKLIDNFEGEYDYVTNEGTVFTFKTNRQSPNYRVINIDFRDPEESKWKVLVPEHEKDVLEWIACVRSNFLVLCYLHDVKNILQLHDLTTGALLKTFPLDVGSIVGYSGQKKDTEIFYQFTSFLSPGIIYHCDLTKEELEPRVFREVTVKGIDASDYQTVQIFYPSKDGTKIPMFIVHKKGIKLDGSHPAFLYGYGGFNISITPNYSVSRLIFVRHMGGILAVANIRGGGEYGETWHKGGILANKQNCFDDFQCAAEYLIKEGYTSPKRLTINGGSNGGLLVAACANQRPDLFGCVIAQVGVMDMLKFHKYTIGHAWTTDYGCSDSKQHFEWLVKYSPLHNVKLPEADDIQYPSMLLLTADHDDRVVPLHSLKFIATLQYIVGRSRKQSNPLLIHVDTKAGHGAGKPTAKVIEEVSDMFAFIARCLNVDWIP
# protocol text: Biochemical human prolyl endopeptidase (PREP) assay with fluorescently labelled substrate
# applied conditions: substrate Z-Gly-Pro-AMC 50 μM, 32° C., 60 min; some as mean values from multiple independent determinations
pIC50: −log10 of the molar value.

- compound: "Cc1ccc(Cn2nc3n(c2=O)C(C(=O)N2CC(=O)C2)CCC3)cc1 (racemic)"
  pIC50: 6.84
- compound: "O=C(C1CC(C(F)(F)F)Cc2nn(Cc3ncc(C(F)(F)F)cc3Cl)c(=O)n21)N1CCC(F)(F)C1 (single isomer, unassigned) [Example 565]"
  pIC50: 8.82
- compound: "COc1ccc(C2(Cn3nc4n(c3=O)[C@H](C(=O)N3CC[C@H](F)C3)CCC4)CC2)cc1"
  pIC50: 9.14
- compound: "O=C(C1CCCc2nn(Cc3cccc(Cl)c3)c(=O)n21)N1CCCC1 (racemic)"
  pIC50: 9.00

----------
# maps each entry to its IC50
# measured target: recombinant full-length human prolyl endopeptidase (PREP) (Homo sapiens, UniProt P48147)
# Construct: To recombinant full-length human prolyl endopeptidase (PREP, R&D-Systems, 4308-SE)
# protocol text: Biochemical human prolyl endopeptidase (PREP) assay with fluorescently labelled substrate
# applied conditions: substrate Z-Gly-Pro-AMC 50 μM, 32° C., 60 min; some as mean values from multiple independent determinations

- compound: "Cc1ccc(Cn2nc3n(c2=O)[C@H](C(=O)N2CCC[C@H]2C=O)CCC3)cc1"
  IC50 [nM]: 0.4
- compound: "O=C(C1CCc2nn(Cc3ccnc(C(F)(F)F)c3F)c(=O)n21)N1C[C@@H](F)[C@@H](F)C1 (single isomer, unassigned) [Example 177]"
  IC50 [nM]: 6.9
- compound: "CC1Cc2nn(Cc3ccc(C(F)(F)F)nc3)c(=O)n2C(C(=O)N2CC(F)C2)C1 (racemic)"
  IC50 [nM]: 3.7
- compound: "O=C(C1CCc2nn(Cc3ccnc(C(F)(F)F)c3F)c(=O)n21)N1CC(F)C1 (racemic)"
  IC50 [nM]: 37.5
- compound: "O=C(C1CCCc2nn(Cc3ccc(OC(F)(F)F)c(Cl)c3)c(=O)n21)N1CCCC1 (racemic)"
  IC50 [nM]: 1.5
- compound: "O=C([C@@H]1CCCc2nn(Cc3ccc(Br)cc3)c(=O)n21)N1CC[C@H](F)C1"
  IC50 [nM]: 0.041
- compound: "O=C([C@@H]1CCCc2nn(Cc3ccc(Cl)cn3)c(=O)n21)N1C[C@@H](F)[C@@H](F)C1"
  IC50 [nM]: 2.6
